These entries and their values trace back to patent US20230233569A1.

Examples of molecules with documented pIC50 follow.
# STUDY SYSTEM: KRAS Q61H (Homo sapiens, UniProt P01116+P62937, Q61H)
# Sequence (P01116 1-169 isoform P01116-2 Q61H limits assumed): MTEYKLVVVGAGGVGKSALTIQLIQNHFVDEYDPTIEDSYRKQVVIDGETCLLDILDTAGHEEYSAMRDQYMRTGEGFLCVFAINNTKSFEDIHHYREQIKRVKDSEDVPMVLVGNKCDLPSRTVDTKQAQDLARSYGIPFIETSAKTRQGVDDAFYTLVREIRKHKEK
# Sequence (P62937 whole entry): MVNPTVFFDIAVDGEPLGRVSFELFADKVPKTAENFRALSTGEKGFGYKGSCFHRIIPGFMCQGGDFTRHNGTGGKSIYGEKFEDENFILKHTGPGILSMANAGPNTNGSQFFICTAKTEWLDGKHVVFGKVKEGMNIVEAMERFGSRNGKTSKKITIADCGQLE
# ASSAY DETAILS: Disruption of BRAF RBD interaction with Ras (FRET / MOA assay, with Cyclophilin A)
# Type: biochemical
# ASSAY SETUP: KRAS Q61H; read-out: KRAS Q61H FRET data IC50
pIC50: −log10 of the molar value.

{"MOLECULE": "CCn1c(-c2cccnc2[C@H](C)OC)c2c3cc(ccc31)-c1csc(n1)C[C@H](NC(=O)[C@H](C(C)C)N(C)C(=O)N1CCC[C@H]1CN(C)C)C(=O)N1CCC[C@H](N1)C(=O)OCC(C)(C)C2 [Example A519]", "pIC50": "6.00 to 7.00"}
{"MOLECULE": "CCn1c(-c2cccnc2[C@H](C)OC)c2c3cc(ccc31)-c1csc(n1)C[C@H](NC(=O)[C@H](C(C)C)N(C)C(=O)N1CCOC[C@@H]1CN(C)C)C(=O)N1CCC[C@H](N1)C(=O)OCC(C)(C)C2 [Example A572]", "pIC50": "6.00 to 7.00"}
{"MOLECULE": "CCn1c(-c2cccnc2[C@H](C)OC)c2c3cc(ccc31)-c1csc(n1)C[C@H](NC(=O)[C@H](C(C)C)N(C)C(=O)N1CCC[C@H](CN(C)C)C1)C(=O)N1CCC[C@H](N1)C(=O)OCC(C)(C)C2 (atropisomer, axis not shown) [Example A573]", "pIC50": "7.00 to 8.00"}
{"MOLECULE": "CCn1c(-c2cccnc2[C@H](C)OC)c2c3cc(ccc31)-c1csc(n1)C[C@H](NC(=O)[C@H](C(C)C)N(C)C(=O)N1CC[C@@H]1CN(C)C)C(=O)N1CCC[C@H](N1)C(=O)OCC(C)(C)C2 [Example A502]", "pIC50": "7.00 to 8.00"}
{"MOLECULE": "C=CC(=O)N1CC[C@H](C(=O)N(C)[C@H](C(=O)N[C@H]2Cc3cc(O)cc(c3)-c3ccc4c(c3)c(c(C3=C(COC)CCCC3)n4CC)CC(C)(C)COC(=O)[C@@H]3CCCN(N3)C2=O)C(C)C)C1 [Example A064]", "pIC50": "6.00 to 7.00"}
{"MOLECULE": "C=CC(=O)N1CCC2(C1)CN(C(=O)N(C)[C@H](C(=O)N[C@H]1Cc3nc(cs3)-c3ccc4c(c3)c(c(-c3cccnc3[C@H](C)OC)n4CC(F)(F)F)CC(C)(C)COC(=O)C3CCCN(N3)C1=O)C(C)C)C2 (some centres unmarked) [Example A603]", "pIC50": "7.00 to 8.00"}
{"MOLECULE": "CCn1c(-c2cccnc2[C@H](C)OC)c2c3cc(ccc31)-c1csc(n1)C[C@H](NC(=O)[C@H](C(C)C)N(C)C(=O)N1CCOCC1)C(=O)N1CCC[C@H](N1)C(=O)OCC(C)(C)C2 (atropisomer, axis not shown) [Example A372]", "pIC50": "7.00 to 8.00"}
{"MOLECULE": "CCn1c(-c2cc(N3CCN(C)CC3)cnc2[C@H](C)OC)c2c3cc(ccc31)-c1csc(n1)C[C@H](NC(C)=O)C(=O)N1CCC[C@H](N1)C(=O)OCC(C)(C)C2 [Example A321]", "pIC50": "6.00 to 7.00"}
{"MOLECULE": "C=CC(=O)N1CC[C@H](C(=O)N(C)[C@H](C(=O)N[C@H]2Cc3cc(O)cc(c3)-c3cc(F)c4c(c3)c(c(-c3ccccc3CCOC)n4CC)CC(C)(C)COC(=O)[C@@H]3CCCN(N3)C2=O)C(C)C)C1 [Example A053]", "pIC50": "5.00 to 6.00"}
{"MOLECULE": "CCn1c(-c2cccnc2[C@H](C)OC)c2c3cc(ccc31)-c1csc(n1)C[C@H](NC(=O)[C@H](C(C)C)N(C)C(=O)N1C[C@H]3OCCN(C)[C@H]3C1)C(=O)N1CCC[C@H](N1)C(=O)OCC(C)(C)C2 (atropisomer, axis not shown) [Example A451]", "pIC50": "6.00 to 7.00"}
{"MOLECULE": "C=CC(=O)N1CC[C@H](C(=O)N(C)[C@H](C(=O)N[C@H]2Cc3cc(O)cc(c3)-c3ccc4c(c3)c(c(-c3cnccc3C)n4CC)CC(C)(C)COC(=O)[C@@H]3CCCN(N3)C2=O)C(C)C)C1 [Example A077]", "pIC50": "7.00 to 8.00"}
{"MOLECULE": "CCn1c(-c2cccnc2[C@H](C)OC)c2c3cc(ccc31)-c1csc(n1)C[C@H](NC(=O)[C@H](C(C)C)N(C)C(=O)N(C)C[C@@H]1CCCN1C)C(=O)N1CCC[C@H](N1)C(=O)OCC(C)(C)C2 [Example A504]", "pIC50": "6.00 to 7.00"}
{"MOLECULE": "CCn1c(-c2cccnc2[C@H](C)OC)c2c3cc(ccc31)-c1csc(n1)C[C@H](NC(=O)[C@H](C(C)C)N(C)C(=O)N1CC([C@@H](C)N(C)C)C1)C(=O)N1CCC[C@H](N1)C(=O)OCC(C)(C)C2 (atropisomer, axis not shown) [Example A458]", "pIC50": "6.00 to 7.00"}
{"MOLECULE": "C=CC(=O)N1CC[C@H](C(=O)N(C)[C@H](C(=O)N[C@H]2Cc3cc(O)cc(c3)-c3ccc4c(c3)c(c(-c3nccnc3COC)n4CC)CC(C)(C)COC(=O)[C@@H]3CCCN(N3)C2=O)C(C)C)C1 [Example A085]", "pIC50": "5.00 to 6.00"}
{"MOLECULE": "C=CC(=O)N1CC[C@H](C(=O)N(C)[C@H](C(=O)N[C@H]2Cc3cc(O)cc(c3)-c3ccc4c(c3)c(c(-c3c(F)cccc3CCOC)n4CC)CC(C)(C)COC(=O)[C@@H]3CCCN(N3)C2=O)C(C)C)C1 [Example A025]", "pIC50": "5.00 to 6.00"}
{"MOLECULE": "C=CC(=O)N1CCOC2(CCN(C(=O)N(C)[C@H](C(=O)N[C@H]3Cc4cccc(c4)-c4ccc5c(c4)c(c(-c4cccnc4[C@H](C)OC)n5CC(F)(F)F)CC(C)(C)COC(=O)C4CCCN(N4)C3=O)C(C)C)CC2)C1 (some centres unmarked) [Example A608]", "pIC50": "7.00 to 8.00"}
{"MOLECULE": "CCn1c(-c2cccnc2[C@H](C)OC)c2c3cc(ccc31)-c1csc(n1)C[C@H](NC(=O)[C@H](C(C)C)N(C)C(=O)N1C[C@H](N)[C@@H](F)C1)C(=O)N1CCC[C@H](N1)C(=O)OCC(C)(C)C2 (atropisomer, axis not shown) [Example A567]", "pIC50": "7.00 to 8.00"}
